All values here come from ChEMBL document CHEMBL1127392.

# target system: UniProtKB Q63931
# Sequence (Q63931 whole entry): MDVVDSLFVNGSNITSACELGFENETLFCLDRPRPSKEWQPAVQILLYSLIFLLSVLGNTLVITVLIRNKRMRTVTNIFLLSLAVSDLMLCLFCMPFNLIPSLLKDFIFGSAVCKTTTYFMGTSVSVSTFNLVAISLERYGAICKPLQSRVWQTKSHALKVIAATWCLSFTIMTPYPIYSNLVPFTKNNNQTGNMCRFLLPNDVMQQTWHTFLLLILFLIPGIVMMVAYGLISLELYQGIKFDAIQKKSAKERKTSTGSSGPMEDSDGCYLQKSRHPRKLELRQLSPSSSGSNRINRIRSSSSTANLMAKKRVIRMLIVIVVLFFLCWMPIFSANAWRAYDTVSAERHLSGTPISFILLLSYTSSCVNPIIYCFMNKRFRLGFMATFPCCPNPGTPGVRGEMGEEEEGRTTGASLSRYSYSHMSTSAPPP
assay metric: IC50 (nM)

Here's what some known entries look like.
INSERT INTO assay_data (compound, reported) VALUES
  ('CC(C)(C)NC(=O)CN1C(=O)[C@H](NC(=O)Nc2cccc(Cl)c2)C[C@H](c2ccccc2)c2ccccc21', 144),
  ('COc1cccc(NC(=O)N[C@@H]2C[C@H](c3ccccc3)c3ccccc3N(CC(=O)NC(C)(C)C)C2=O)c1', 166),
  ('Cc1ccc2c(c1)N(CC(=O)NC(C)(C)C)C(=O)[C@H](NC(=O)Nc1cccc(Cl)c1)C[C@@H]2C(C)C', 72),
  ('CCC(C)(C)NC(=O)CN1C(=O)[C@H](NC(=O)Nc2cccc(Cl)c2)C[C@H](c2ccccc2)c2ccccc21', 144),
  ('CC(C)(C)NC(=O)CN1C(=O)[C@H](NC(=O)Nc2cccc(Cl)c2)C[C@H](c2cccc(Cl)c2)c2ccccc21', 69);

[I] CCc1ccc2c(c1)N(CC(=O)NC(C)(C)C)C(=O)[C@H](NC(=O)Nc1cccc(Cl)c1)C[C@@H]2c1ccccc1
[II] Cc1ccc(NC(=O)N[C@@H]2C[C@H](c3ccccc3)c3ccccc3N(CC(=O)NC(C)(C)C)C2=O)cc1
input: Smaller IC50 value? Options are I and II Lab note: record the label of whichever item you select.
output: I
(I: 71 nM, II: 1140 nM)

[P] CN(C(=O)CN1C(=O)[C@H](NC(=O)Nc2cccc(Cl)c2)C[C@H](c2ccccc2)c2ccccc21)C(C)(C)C
[Q] CC(C)(C)NC(=O)CN1C(=O)[C@H](NC(=O)Nc2cccc(Cl)c2)C[C@H](c2ccccc2)c2ccc(Cl)cc21
[R] Cc1cccc2c1N(CC(=O)NC(C)(C)C)C(=O)[C@H](NC(=O)Nc1cccc(Cl)c1)C[C@@H]2c1ccccc1
input: Rank by IC50 (largest to smallest). List the labels according to the requested ordering.
output: Q, R, P
(Q: 320 nM, R: 77 nM, P: 4.2 nM)
